Here, each record is paired with measured Turnover data.
System: Pseudomonas fluorescens HPPD polypeptide (wild-type and mutants)
Assay: Coupled HPPD activity assay: turnover and residual turnover in crude HPPD polypeptide extracts with and without Cmpd. 1
Assay type: biochemical
Settings: absence of Cmpd. 1; changes in absorbance (OD) at 320 nm in the coupled assay, 30 min

- molecule: "SEQ ID NO:51 (protein, mutant HPPD polypeptide) MADLYENPMGLMGFEFIEFASPTPGTLEPIFEIMGFTKVATHRSKNVHLYRQGEINLILNNEPNSIASYFAAEHGPSVCGMAFRVKDSQKAYNRALELGAQPIHIDTGPMELNLPAIKGIGGAPLYLIDRFGEGSSIYDIDFVYLEGVERNPVGAGLKVIDHLTHNVYRGRMVYWANFYEKLFNFREARYFDIKGEYTGLTSKAMSAPDGMIRIALNEESSKGAGQIEEFLMQFNGEGIQHVAFLTDDLVKTWDALKKIGMRFMTAPGDEYYEMLEGRLPDHGEPVDQLQARGILLDGSSVEGDKRLLLQIFSEQLMGPVFFEFIQRKGDDGFGPHSFKVLFESIERDQVRRGVLTAD"
  Turnover: 0.173
- molecule: "SEQ ID NO:60 (protein, mutant HPPD polypeptide) MADLYENPMGLMGFEFIEFASPTPGTLEPIFEIMGFTKVATHRSKNVHLYRQGEINLILNNEPNSIASYFAAEHGPSVCGMAFRVKDSQKAYNRALELGAQPIHIDTGPMELNLPAIKGIGGAPLYLIDRFGEGSSIYDIDFVYLEGVERNPVGAGLKVIDHLTHNVYRGRMVYWANFYEKLFNFREARYFDIKGEYTGLTSKAMSAPDGMIKIPLNEESSKGAGQIEEFLMQFNGEGIQHVAFLTDDLVKTWDALKKIGMRFLTAPGDEYYEMLEGRLPDHGEPVDQLQARGILLDGSSVEGDKRLLLQIFSEKLMGPVFFEFIQRKGDDGFGPDSFKVLFEQMERDQVRRGVLTAD"
  Turnover: 0.252
- molecule: "SEQ ID NO:54 (protein, mutant HPPD polypeptide) MADLYENPMGLMGFEFIEFASPTPGTLEPIFEIMGFTKVATHRSKNVHLYRQGEINLILNNEPNSIASYFAAEHGPSVCGMAFRVKDSQKAYNRALELGAQPIHIDTGPMELNLPAIKGIGGAPLYLIDRFGEGSSIYDIDFVYLEGVERNPVGAGLKVIDHLTHNVYRGRMVYWANFYEKLFNFREARYFDIKGEYTGLTSKAMSAPDGMIRIPLNEESSKGAGQIEEFLMQFNGEGIQHVAFLTDDLVKTWDALKKIGMRFLTAPGDEYYEMLEGRLPDHGEPVDQLQARGILLDGSSVEGDKRLLLQIFSEKLMGPVFFEFIQRKGDDGFGPHSFKVLFEQMERDQVRRGVLTAD"
  Turnover: 0.274
- molecule: "SEQ ID NO:29 (protein, mutant HPPD polypeptide) MADLYENPMGLMGFEFIEFASPTPGTLEPIFEIMGFTKVATHRSKNVHLYRQGEINLILNNEPNSIASYFAAEHGPSVCGMAFRVKDSQKAYNRALELGAQPIHIDTGPMELNLPAIKGIGGAPLYLIDRFGEGSSIYDIDFVYLEGVERNPVGAGLKVIDHLTHNVYRGRMVYWANFYEKLFNFREARYFDIKGEYTGLTSKAMSAPDGMIRIPLNEESSKGAGQIEEFLMQFNGEGIQHVAFLTDDLVKTWDALKKIGMRFMTAPGDEYYEMLEGRLPDHGEPVDQLQARGILLDGSSVEGDKRLLLQIFSEKLMGPVFFEFIQRKGDDGFGPHSFKVLFEQIERDQVRRGVLTAD"
  Turnover: 0.286
